- assayedTarget: SERT (Homo sapiens)
- Sequence (P31645 whole entry): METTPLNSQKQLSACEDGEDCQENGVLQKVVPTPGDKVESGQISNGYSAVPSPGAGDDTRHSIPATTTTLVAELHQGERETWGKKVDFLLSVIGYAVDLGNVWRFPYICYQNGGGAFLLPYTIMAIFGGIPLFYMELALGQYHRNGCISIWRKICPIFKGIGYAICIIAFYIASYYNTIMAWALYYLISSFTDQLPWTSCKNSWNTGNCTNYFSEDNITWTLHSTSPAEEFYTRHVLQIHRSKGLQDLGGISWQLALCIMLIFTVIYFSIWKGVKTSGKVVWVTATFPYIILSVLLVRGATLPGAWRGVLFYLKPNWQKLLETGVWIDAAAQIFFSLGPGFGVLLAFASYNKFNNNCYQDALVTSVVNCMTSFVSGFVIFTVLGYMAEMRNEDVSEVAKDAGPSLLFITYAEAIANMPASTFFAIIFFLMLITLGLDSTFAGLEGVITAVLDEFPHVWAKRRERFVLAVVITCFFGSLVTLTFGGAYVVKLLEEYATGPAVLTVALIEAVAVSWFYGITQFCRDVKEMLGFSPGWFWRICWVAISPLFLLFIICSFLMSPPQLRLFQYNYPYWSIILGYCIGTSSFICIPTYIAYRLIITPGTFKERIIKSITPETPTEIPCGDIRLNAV
- experimentNotes: hSERT radioligand binding assay (3H-citalopram)
- Parameters: expressed in transfected cells; host or cells: HEK-293
- details: hSERT membranes (HEK-293), 1.0 nM 3H-citalopram
parameterMeasured: SERT pKi

compound	assayedTarget	measuredResult
Cc1c(F)c(F)nc(O[C@@H](c2ccccc2)[C@H]2CCNC2)c1F.O=C(O)C(F)(F)F	SERT (Homo sapiens)	≧7.0
Fc1cc(F)c(Cl)c(O[C@@H](c2ncco2)[C@H]2CCNC2)c1Cl.O=C(O)C(F)(F)F	SERT (Homo sapiens)	≧5.0
Fc1cncc([C@H](Oc2ccc3ccccc3c2)[C@H]2CCNC2)c1.O=C(O)C(F)(F)F	SERT (Homo sapiens)	≧7.0
Cc1cc(Cl)c(O[C@@H](c2ncco2)[C@H]2CCNC2)cc1F.O=C(O)C(F)(F)F	SERT (Homo sapiens)	≧7.0
Clc1ccc(O[C@H](c2ccccc2)[C@@H]2CCNC2)cn1.O=C(O)C(F)(F)F	SERT (Homo sapiens)	≧7.0

Item "COC(=O)c1cc(Cl)ccc1O[C@@H](c1ncco1)[C@H]1CCNC1.O=C(O)C(F)(F)F" has what recorded SERT pKi?
≧7.0

Field entry: "Fc1cccnc1O[C@H](c1ccccc1)[C@@H]1CCNC1.O=C(O)C(F)(F)F"
≧5.0

Another compound to look at: "Fc1ccc(F)c(O[C@@H](c2cnccn2)[C@H]2CCNC2)c1Cl.O=C(O)C(F)(F)F"
≧5.0

----------
- assayedTarget: NET (Homo sapiens)
- Sequence (P23975 whole entry): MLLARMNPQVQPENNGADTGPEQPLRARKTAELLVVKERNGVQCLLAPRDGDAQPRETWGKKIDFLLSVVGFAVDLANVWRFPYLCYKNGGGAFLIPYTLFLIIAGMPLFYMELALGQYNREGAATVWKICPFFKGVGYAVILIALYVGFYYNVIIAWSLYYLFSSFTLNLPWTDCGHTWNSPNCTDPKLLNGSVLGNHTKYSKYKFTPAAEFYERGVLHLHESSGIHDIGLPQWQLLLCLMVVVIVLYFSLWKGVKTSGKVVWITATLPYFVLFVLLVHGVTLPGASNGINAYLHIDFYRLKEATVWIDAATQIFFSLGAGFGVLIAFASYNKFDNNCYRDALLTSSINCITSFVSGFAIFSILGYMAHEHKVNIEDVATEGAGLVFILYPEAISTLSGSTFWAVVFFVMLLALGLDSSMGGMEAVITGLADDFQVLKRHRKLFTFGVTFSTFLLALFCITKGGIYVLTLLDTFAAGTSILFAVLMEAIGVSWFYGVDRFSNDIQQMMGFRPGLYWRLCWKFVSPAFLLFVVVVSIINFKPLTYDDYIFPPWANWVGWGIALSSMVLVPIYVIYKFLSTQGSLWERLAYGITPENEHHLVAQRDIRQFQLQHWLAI
- experimentNotes: hNET radioligand binding assay (3H-nisoxetine)
- Parameters: expressed in transfected cells; host or cells: HEK-293
- details: hNET membranes (HEK-293), 1.0 nM 3H-nisoxetine
parameterMeasured: NET pKi

Past entries and their recorded results:
compound	NET pKi
COc1cc(Cl)ccc1O[C@@H](c1ncco1)[C@H]1CCNC1 [6-39]	≧7.0
Fc1nc(OC(c2ccccc2)C2CCNC2)c(F)c(F)c1F (centres unmarked) [14-42]	≧5.0
Cc1ccc(O[C@@H](c2ccccc2)[C@H]2CCNC2)nc1.O=C(O)C(F)(F)F [14-30]	≧7.0
Cc1cc(Cl)c(O[C@@H](c2ncco2)[C@H]2CCNC2)cc1F.O=C(O)C(F)(F)F [6-24]	≧7.0
COc1ccccc1O[C@@H](c1ncco1)[C@H]1CCNC1.O=C(O)C(F)(F)F [6-52]	≧7.0

// query NET pKi value for entry Cc1cc(Cl)ccc1O[C@@H](c1ncco1)[C@H]1CCNC1.O=C(O)C(F)(F)F [6-34]
≧7.0

Queued: Cc1nc(O[C@@H](c2ccccc2)[C@H]2CCNC2)c(Br)cc1Br.O=C(O)C(F)(F)F [14-12]
≧7.0

Same for Clc1ccc(O[C@@H](c2ccccc2)[C@H]2CCNC2)c(Cl)n1.O=C(O)C(F)(F)F [15-3]
≧7.0

// next record Fc1cc(Cl)ccc1O[C@@H](c1ncco1)[C@H]1CCNC1.O=C(O)C(F)(F)F [6-31]
≧7.0

What about this compound? FC(F)(F)c1cc(Cl)ccc1O[C@@H](c1ncco1)[C@H]1CCNC1.O=C(O)C(F)(F)F [6-18]
≧7.0

Cc1cc(Cl)cc(C)c1O[C@H](c1cncc(Cl)c1)[C@@H]1CCNC1 [Example 2-29] ?
≧5.0

Similarly, Fc1cc(Cl)ccc1O[C@H](c1nccs1)[C@H]1CCNC1 [Example 5-33] ?
≧7.0

Likewise for Fc1cc(Cl)cnc1O[C@@H](c1ccccc1)[C@H]1CCNC1.O=C(O)C(F)(F)F [14-28] ?
≧5.0

Value source: patent US20100267743A1
